# System: Mus musculus
# TEST DETAILS: Reduction of spleen weight in human Bcl2 expressing B6 transgenic mouse at 72 umol/kg, ip administered as single dose after 24 hrs
# Type: functional
# Set-up: scale not given: the % may be the effect or the level left
Activity by entry:
Numbers only here, please. The scale is %.

// known answers, use as guide
Cc1cc2c(C(=O)NCC(C)c3ccccc3)c(O)c(O)cc2c(O)c1-c1c(C)cc2c(C(=O)NCC(C)c3ccccc3)c(O)c(O)cc2c1O (stereo not given) | 40
Cc1cc2c(C(=O)NC(C)c3ccc(Cl)cc3)c(O)c(O)cc2c(O)c1-c1c(C)cc2c(C(=O)NC(C)c3ccc(Cl)cc3)c(O)c(O)cc2c1O (stereo not given) | 40

Okay, now this compound:
Readout Activity for Cc1cc2c(C(=O)NCCc3cccc(Cl)c3)c(O)c(O)cc2c(O)c1-c1c(C)cc2c(C(=O)NCCc3cccc(Cl)c3)c(O)c(O)cc2c1O , test system Mus musculus, was 40
